Exercise: for every item that follows, state its recorded IC50.
All answers are understood in nM, so give the number only.

Query IC50 on human uterine oxytocin receptor (Homo sapiens, UniProt P30559) for COc1ccc2c(n1)C(CCCN1CCN(C)CC1)(c1ccccc1F)C(=O)N2S(=O)(=O)c1ccc(OC(C)C)cc1 (stereo not shown) 100

Form field: IC50 recorded for CCN(CC)C(=O)Nc1ccc(S(=O)(=O)N2C(=O)C(NCCC3CCNCC3)(c3ccccc3Cl)c3cc(Cl)c(C)cc32)cc1 (stereo not shown) with human uterine oxytocin receptor (Homo sapiens, UniProt P30559) (enter value) 69

# query: IC50 | item COc1ccc2c(n1)C(CCCN1CCNCC1)(c1ccccc1F)C(=O)N2S(=O)(=O)c1ccc(OC(C)C)cc1 (stereo not shown) | system: human uterine oxytocin receptor (Homo sapiens, UniProt P30559) 71

Tell me reported IC50 for CCN(CC)C(=O)Nc1ccc(S(=O)(=O)N2C(=O)C(NCCC3CCNCC3)(c3ccccc3Cl)c3cc(Cl)c(Cl)cc32)cc1 (stereo not shown) , tested with human uterine oxytocin receptor (Homo sapiens, UniProt P30559). 100
